Source listed as patent US20180141989A1.

Here, each record is paired with measured IC50 data.
target_or_test_system: T1, MBP-RAMP1 ECD-(GS)5-CTR ECD-H6 fusion protein (human, UniProt O60894 27-118; P30988 34-141, limits assumed)
T1 construct: extracellular domain; CTR-based proteins were produced in HEK293T cells (N-glycosylated); also called RAMP1-CTR ECD; RAMP1-CTR
T1 sequence (O60894 other isoform, or with tags, fused parts or gaps limits assumed): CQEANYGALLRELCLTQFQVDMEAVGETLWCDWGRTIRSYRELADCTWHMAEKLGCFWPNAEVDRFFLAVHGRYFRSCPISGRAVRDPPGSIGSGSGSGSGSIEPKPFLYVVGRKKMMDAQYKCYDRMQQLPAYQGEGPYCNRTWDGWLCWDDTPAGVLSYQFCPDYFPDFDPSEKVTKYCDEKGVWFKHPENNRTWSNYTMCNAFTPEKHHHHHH
experiment_notes: AlphaLISA competition vs Biotin-AC413 probe, purified AMY1 ECD fusion
Where no end group is shown, it is not given here.
Write it as a number; the unit µM goes unstated.

What does the data say about its IC50? Entry: FVPTDVGPWSF-NH2 [CGRP(27-37)NH2 [N31D, S34P, K35W, A36S]]
0.26

Entry under review: DKDNVAPRWLISPWGF-NH2 [AM(37-52)NH2 [S45W, K46L, Q50W, Y52F]] . Reported IC50?
16
